# SYSTEM_UNDER_TEST: T1, SARS spike S1 subunit (severe acute respiratory syndrome …, UniProt P59594 14-667)
# T1 construct: domain: S1 subunit
# EXPERIMENT_NOTES: ELISA

BINDER	binding result
FN 2C (antibody, V domains shown) VH: EVQLLESGGGVVQPGRSLRLSCAASGFNFNNYGMHWVRQAPGKGLEWVATISYEGSKKFYVDSVKGRFTISKDNSKNTLYLQMNSLRVDDTAFYYCAKRREIFWLGEPPLSDAFDFWGQGTMVTVSS VL: QSVLTQPPSVSGAPGQRVTISCTGSGSNIGAGYDVHWYQFLPGTAPQLLIYGNNNRPSGVPDRFSGSKSGTSASLAITGLQAEDEADYYCQSYDSSLSGSVFGGGTKLTVL	no binding
FG 12C (antibody, V domains shown) VH: EVQLVESGGGLVQPGRSLRLSCAASGFTFDDYAMHWVRQAPGKGLEWVSGISWNSGSIGYADSVKGRFTISRDNAKNSLYLQMNSLRAEDTALYYCAKDMRVHDYGDYYFDYWGQGTLVTVSS VL: SYELTQPPSVSVAPGKTARITCGGNNIGSKSVHWYQQKPGQAPVLVIYYDSDRPSGIPERFSGSNSGNTATLTISRVEAGDEADYYCQVWDSSSDHPVFGGGTKLTVL	no binding
